- method-description: solvent given as SMILES
- experimental-conditions: in C1CCOC1
absorption maximum less than 400 nm is condition met; absorption maximum greater than or equal to 400 nm is condition not met.

Just wondering, is absorption maximum of `CN(C)c1c2ccccc2cc2ccccc12` below 400 nm?
condition met

Report whether reported absorption maximum is lower than 400 nm (strictly) for `c1ccc2cc(-n3c4ccccc4c4ccccc43)ccc2c1`
condition met

Is the reported absorption maximum for `CN(C)CCN(Cc1c2ccccc2c(CN(CCN(C)C)c2ccc([N+](=O)[O-])cc2[N+](=O)[O-])c2ccccc12)c1ccc([N+](=O)[O-])cc1[N+](=O)[O-]` strictly below 400 nm?
condition met

Please state whether absorption maximum is below 400 nm for `C(=C1c2ccccc2-c2ccccc21)c1ccc(-c2ccc(C=C3c4ccccc4-c4ccccc43)cc2)cc1`
condition met

Does `CCC1(CC)c2ccccc2-c2c1c1c(c3c2C(CC)(CC)c2cc(/C=C/c4cccs4)ccc2-3)C(CC)(CC)c2ccccc2-1` have absorption maximum strictly under 400 nm?
condition met

Determine whether this compound shows absorption maximum lower than 400 nm (ties excluded): `F[B-]1(F)n2c(c3ccccc3c2-c2ccccc2)C=C2c3ccccc3C(c3ccccc3)=[N+]21`
condition not met

Does the reported absorption maximum of the following compound sit strictly below 400 nm? `N#Cc1cc2ccc(O)cc2oc1=O`
condition met

Dear reviewer, please state whether `c1ccc(-c2cc(-c3ccc4ccc5cccc6ccc3c4c56)ccn2)nc1` has absorption maximum strictly beneath 400 nm.
condition met

Is 400 nm strictly greater than the compound's reported absorption maximum? compound: FC(F)(F)C(F)(F)C(F)(F)C1=NC2=C(Br)C=C3c4cc(Br)c5nc(C(F)(F)C(F)(F)C(F)(F)F)nc6c(Br)cc(c4c56)=C4C=C(Br)C(=N1)C2C34 (configuration not stated)
condition not met

Is 400 nm strictly greater than the compound's reported absorption maximum? compound: `CN(C)CCNc1ccc([N+](=O)[O-])cc1[N+](=O)[O-]`
condition met

hey, is absorption maximum for CCCCC1=Cc2c3ccc4cccc5ccc(c6cc(-c7ccccc7)n(c26)P1(=O)c1ccccc1)c3c45 (configuration not stated) lower than 400 nm or not?
condition not met
